species: Rattus norvegicus; assay: Open TG-GATES - Regimen: Single; assay type: toxicity, organism-based, Sprague-Dawley; set-up: regimen Single, gender Male, age 6 weeks; conditions: in vivo, po, 1000 mg/kg, 9 h, tissue Blood, route gavage, dose level High
measurementKind: Ht
Write the figure, then the unit, nothing else.

Look up Ht for this compound: COc1ccc2[nH]c([S+]([O-])Cc3ncc(C)c(OC)c3C)nc2c1 (stereo not given)
37.1%

Lookup NC(N)=Nc1nc(CSCCC(N)=NS(N)(=O)=O)cs1
36.5%

Entry to check: COC1=CC(=O)C[C@@H](C)[C@]12Oc1c(Cl)c(OC)cc(OC)c1C2=O
36.1%

Further, for CC(C)OC(=O)C(C)(C)Oc1ccc(C(=O)c2ccc(Cl)cc2)cc1 [FENOFIBRATE] ?
39.8%

Please do the same for CCOC(=O)CCC(=O)O[C@H]1[C@H](O[C@@H]2[C@@H](C)[C@H](O[C@H]3C[C@@](C)(OC)[C@@H](O)[C@H](C)O3)[C@@H](C)C(=O)O[C@H](CC)[C@@](C)(O)[C@H](O)[C@@H](C)C(=O)[C@H](C)C[C@@]2(C)O)O[C@H](C)C[C@@H]1N(C)C [ERYTHROMYCIN ETHYLSUCCINATE] as well.
40.8%

* * *

species on record: Rattus norvegicus; test: Open TG-GATES - Regimen: Daily Repeat; format: toxicity, organism-based, Sprague-Dawley; set-up: regimen Daily Repeat, gender Male, age 6 weeks; conditions: in vivo, po, 0 mg/kg, […], tissue Plasma, route gavage, dose level Control, time 7 day
Would you mind telling me the reported gamma-GTP of each entry?
# do not omit the unit; it follows the number

Fill in the blank: the reported gamma-GTP of CCOc1ccc(NC(=O)CC(C)O)cc1 (stereo not drawn) is ____.
1 IU/L

Follow-up item: COC1=CC(=O)C[C@@H](C)[C@]12Oc1c(Cl)c(OC)cc(OC)c1C2=O
1.2 IU/L

// same read-out, input: NC(N)=Nc1nc(CSCCC(N)=NS(N)(=O)=O)cs1
0.8 IU/L

Param item: CN1C(=O)CN=C(c2ccccc2)c2cc(Cl)ccc21
1.6 IU/L

Please give the result for O=C(CCCN1CCC(O)(c2ccc(Cl)cc2)CC1)c1ccc(F)cc1 too.
1.8 IU/L

Try this compound next: CN(C)CCCN1c2ccccc2CCc2ccccc21
0.4 IU/L

Please give the result for CCOC(=O)CCC(=O)O[C@H]1[C@H](O[C@@H]2[C@@H](C)[C@H](O[C@H]3C[C@@](C)(OC)[C@@H](O)[C@H](C)O3)[C@@H](C)C(=O)O[C@H](CC)[C@@](C)(O)[C@H](O)[C@@H](C)C(=O)[C@H](C)C[C@@]2(C)O)O[C@H](C)C[C@@H]1N(C)C [ERYTHROMYCIN ETHYLSUCCINATE] too.
1.4 IU/L

Moving on to NNC(=O)c1ccncc1
1.2 IU/L

* * *

species on record: Rattus norvegicus; assay: Open TG-GATES - Regimen: Daily Repeat; type: toxicity, organism-based, Sprague-Dawley; set-up: regimen Daily Repeat, gender Male, age 6 weeks; details: in vivo, po, 10 mg/kg, […], tissue Plasma, route gavage, dose level Low, time 14 day
measurementKind: TP (g/dL)
Give the quantity in g/dL, number only.

# get_value(readout='TP', item= CC(C)OC(=O)C(C)(C)Oc1ccc(C(=O)c2ccc(Cl)cc2)cc1 [FENOFIBRATE] )
6

Repeat with CC1=C(/C=C/C(C)=C/C=C/C(C)=C/CO)C(C)(C)CCC1 [RETINOL]
5.7

What do we get for CN(C)CCCN1c2ccccc2CCc2ccccc21 [IMIPRAMINE] ?
6.2

And for CN(C)CCN(Cc1cccs1)c1ccccn1 ?
5.6

* * *

species on record: Rattus norvegicus; assay: Open TG-GATES - Regimen: Single; format: toxicity, organism-based, Sprague-Dawley; parameters: regimen Single, gender Male, age 6 weeks; conditions: in vivo, po, 0 mg/kg, 6 h, tissue Plasma, route gavage, dose level Control
measurementKind: TP (g/dL)
Numeric only. Scale: g/dL

Quick check: TP of CN(C)CCCN1c2ccccc2CCc2ccccc21 ?
5.3

Repeat for the following molecule: CC(C)OC(=O)C(C)(C)Oc1ccc(C(=O)c2ccc(Cl)cc2)cc1 [FENOFIBRATE]
5.4

Please give the result for CCOC(=O)CCC(=O)O[C@H]1[C@H](O[C@@H]2[C@@H](C)[C@H](O[C@H]3C[C@@](C)(OC)[C@@H](O)[C@H](C)O3)[C@@H](C)C(=O)O[C@H](CC)[C@@](C)(O)[C@H](O)[C@@H](C)C(=O)[C@H](C)C[C@@]2(C)O)O[C@H](C)C[C@@H]1N(C)C [ERYTHROMYCIN ETHYLSUCCINATE] too.
5.5

Now the molecule COc1ccc2[nH]c([S+]([O-])Cc3ncc(C)c(OC)c3C)nc2c1 (stereo not drawn)
5.4

And then O=C(CCCN1CCC(O)(c2ccc(Cl)cc2)CC1)c1ccc(F)cc1 , what is it?
5.6

Next: CN1C(=O)CN=C(c2ccccc2)c2cc(Cl)ccc21
5.6

And the next one, COc1cc2c(c(OC)c1OC)-c1ccc(OC)c(=O)cc1[C@@H](NC(C)=O)CC2 ?
5.5

What about this molecule? CC1=C(/C=C/C(C)=C/C=C/C(C)=C/CO)C(C)(C)CCC1
5.5

And then CN(C)CCN(Cc1cccs1)c1ccccn1 , what is it?
5.3

Then this molecule: CCCNC(=O)NS(=O)(=O)c1ccc(Cl)cc1 [CHLORPROPAMIDE]
5.4

Moving on to CN(C)CCCN1c2ccccc2CCc2ccc(Cl)cc21
5.4

Follow-up entry: NC(N)=Nc1nc(CSCCC(N)=NS(N)(=O)=O)cs1
5.5

How about Cc1ccc(C)c(OCCCC(C)(C)C(=O)O)c1 ?
5.6

Can you check CCOc1ccc(NC(=O)CC(C)O)cc1 (stereo not drawn) next?
5.4

# iterate: C[C@@H]1C[C@H]2[C@@H]3CCC4=CC(=O)C=C[C@]4(C)[C@@]3(F)[C@@H](O)C[C@]2(C)[C@@]1(O)C(=O)CO
5.6

Proceed to CC/C(=C(\c1ccccc1)c1ccc(OCCN(C)C)cc1)c1ccccc1
5.4

Also, COC1=CC(=O)C[C@@H](C)[C@]12Oc1c(Cl)c(OC)cc(OC)c1C2=O please.
5.4

And for NNC(=O)c1ccncc1 ?
5.4

* * *

Would you mind telling me the reported TC of each entry?
species: Rattus norvegicus; experiment: Open TG-GATES - Regimen: Single; type: toxicity, organism-based, Sprague-Dawley; set-up: regimen Single, gender Male, age 6 weeks; settings: in vivo, po, 300 mg/kg, 3 h, tissue Plasma, route gavage, dose level Middle
Answer format: numeric, mg/dL implied, no suffix.

Query (molecule): COc1ccc2[nH]c([S+]([O-])Cc3ncc(C)c(OC)c3C)nc2c1 (centres undefined) ; field requested: TC
80.2

Continue with COC1=CC(=O)C[C@@H](C)[C@]12Oc1c(Cl)c(OC)cc(OC)c1C2=O
84.8

Same lookup for NC(N)=Nc1nc(CSCCC(N)=NS(N)(=O)=O)cs1 , please.
77.2

Now the same for CCOC(=O)CCC(=O)O[C@H]1[C@H](O[C@@H]2[C@@H](C)[C@H](O[C@H]3C[C@@](C)(OC)[C@@H](O)[C@H](C)O3)[C@@H](C)C(=O)O[C@H](CC)[C@@](C)(O)[C@H](O)[C@@H](C)C(=O)[C@H](C)C[C@@]2(C)O)O[C@H](C)C[C@@H]1N(C)C [ERYTHROMYCIN ETHYLSUCCINATE]
76.4

* * *

For each entry below, report its K value.
organism: Rattus norvegicus; assay: Open TG-GATES - Regimen: Daily Repeat; format: toxicity, organism-based, Sprague-Dawley; set-up: regimen Daily Repeat, gender Male, age 6 weeks; conditions: in vivo, po, 0 mg/kg, […], tissue Plasma, route gavage, dose level Control, time 28 day
The response must be a number in meq/L with no trailing unit.

// K lookup, key: NNC(=O)c1ccncc1 [ISONIAZID]
4.4

Same question for CN(C)CCN(Cc1cccs1)c1ccccn1 please.
4.1

Similarly, O=C(CCCN1CCC(O)(c2ccc(Cl)cc2)CC1)c1ccc(F)cc1 [HALOPERIDOL] ?
4.6

Now the same for CCCNC(=O)NS(=O)(=O)c1ccc(Cl)cc1 [CHLORPROPAMIDE]
3.8

* * *

species on record: Rattus norvegicus; assay: Open TG-GATES - Regimen: Daily Repeat; type: toxicity, organism-based, Sprague-Dawley; parameters: regimen Daily Repeat, gender Male, age 6 weeks; conditions: in vivo, po, 100 mg/kg, […], tissue Blood, route gavage, dose level Low, time 28 day
Exercise: state measured MCV for each of the molecules provided.
A number alone suffices; assume fL.

What does the data say about its MCV? Entry: NC(N)=Nc1nc(CSCCC(N)=NS(N)(=O)=O)cs1
54.9

Same again, this time with CCOc1ccc(NC(=O)CC(C)O)cc1 (stereo not given)
55.9

And the next one, COc1ccc2[nH]c([S+]([O-])Cc3ncc(C)c(OC)c3C)nc2c1 (stereo not given) ?
54.3

Now the same for COC1=CC(=O)C[C@@H](C)[C@]12Oc1c(Cl)c(OC)cc(OC)c1C2=O
57.2

Repeat for the following molecule: CCOC(=O)CCC(=O)O[C@H]1[C@H](O[C@@H]2[C@@H](C)[C@H](O[C@H]3C[C@@](C)(OC)[C@@H](O)[C@H](C)O3)[C@@H](C)C(=O)O[C@H](CC)[C@@](C)(O)[C@H](O)[C@@H](C)C(=O)[C@H](C)C[C@@]2(C)O)O[C@H](C)C[C@@H]1N(C)C [ERYTHROMYCIN ETHYLSUCCINATE]
56.8
